Where these numbers come from: patent US20150104459A1

measured target: recombinant soluble homotrimeric HA, A/duck/Yangzhou/02/2005 (H8N4) (influenza A virus A/duck/Yangzhou/02/2005 (H8N4))
method notes: microarray, trimeric HA, transfection supernatant
measurement context: remark: other sources report otherwise
So I've got a bunch of binders here, and I need their Trimeric HA Binding RLU values.
Answers without a unit are incomplete; give the number and then its unit.

Query: Kindly indicate its recorded Trimeric HA Binding RLU. Item: TCN-554 (5277_M05) (antibody, V domains shown) VH: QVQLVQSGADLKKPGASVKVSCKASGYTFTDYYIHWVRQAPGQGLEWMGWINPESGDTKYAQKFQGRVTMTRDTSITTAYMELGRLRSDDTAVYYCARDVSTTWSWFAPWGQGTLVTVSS VL: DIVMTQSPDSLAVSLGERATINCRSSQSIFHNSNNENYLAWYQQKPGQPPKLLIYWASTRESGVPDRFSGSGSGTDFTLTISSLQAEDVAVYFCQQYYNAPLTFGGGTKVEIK
Result: 5810 RLU

Query: Kindly indicate its recorded Trimeric HA Binding RLU. Item: TCN-542 (5079_A16) (antibody, V domains shown) VH: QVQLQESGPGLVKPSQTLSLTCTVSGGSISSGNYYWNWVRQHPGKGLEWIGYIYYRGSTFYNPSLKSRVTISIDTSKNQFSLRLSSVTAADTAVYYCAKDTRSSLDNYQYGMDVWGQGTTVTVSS VL: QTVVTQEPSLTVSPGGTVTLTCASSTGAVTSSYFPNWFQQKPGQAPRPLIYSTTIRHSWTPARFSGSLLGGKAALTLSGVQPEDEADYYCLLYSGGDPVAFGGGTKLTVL
Result: 11600 RLU

Query: Kindly indicate its recorded Trimeric HA Binding RLU. Item: TCN-540 (5060_F05) (antibody, V domains shown) VH: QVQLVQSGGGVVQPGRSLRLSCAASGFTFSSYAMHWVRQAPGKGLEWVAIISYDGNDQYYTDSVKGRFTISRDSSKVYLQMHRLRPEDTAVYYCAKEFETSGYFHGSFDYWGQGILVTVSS VL: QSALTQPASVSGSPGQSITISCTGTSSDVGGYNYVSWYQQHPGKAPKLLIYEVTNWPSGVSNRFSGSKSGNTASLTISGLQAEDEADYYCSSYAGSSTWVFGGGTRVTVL
Result: 6080 RLU

Query: Kindly indicate its recorded Trimeric HA Binding RLU. Item: TCN-553 (5261_C18) (antibody, V domains shown) VH: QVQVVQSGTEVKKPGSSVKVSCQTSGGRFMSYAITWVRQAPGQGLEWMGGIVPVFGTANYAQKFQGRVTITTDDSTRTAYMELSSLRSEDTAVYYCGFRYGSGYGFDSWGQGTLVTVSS VL: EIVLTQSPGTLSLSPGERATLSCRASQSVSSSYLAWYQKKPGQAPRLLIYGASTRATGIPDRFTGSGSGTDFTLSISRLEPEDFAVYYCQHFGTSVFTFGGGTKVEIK
Result: 12500 RLU

Query: Kindly indicate its recorded Trimeric HA Binding RLU. Item: TCN-544 (5082_A19) (antibody, V domains shown) VH: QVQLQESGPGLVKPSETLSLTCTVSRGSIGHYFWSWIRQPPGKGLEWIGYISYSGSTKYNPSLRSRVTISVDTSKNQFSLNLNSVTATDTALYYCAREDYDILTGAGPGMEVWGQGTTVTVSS VL: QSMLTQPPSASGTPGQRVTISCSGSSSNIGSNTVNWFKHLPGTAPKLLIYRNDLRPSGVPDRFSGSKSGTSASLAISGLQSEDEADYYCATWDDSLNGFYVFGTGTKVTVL
Result: 9440 RLU
